Experiment: Cmax in Sprague-Dawley rat at 5 mg/kg, iv
Type: ADME, organism-based
Design: dose 5 mg/kg, route intravenous
Details: in vivo
property-measured: Cmax (ng/mL)

[[record]]
compound = "CC1(c2ccc(Nc3nc(N4CCCCC4)nc(N4CCCCC4)n3)cc2)NC(=O)c2ccccc2N1 (stereo unspecified)"
scale_unit = "ng/mL"
numeric_readout = 1830


====

Test system: Leishmania donovani
Assay: Antileishmanial activity against amastigotes of Leishmania donovani MHOM/IN/60/Dd8 infected in mouse J-774A.1 cells after 72 hrs by luciferase reporter gene assay
Assay type: functional, organism-based
Settings: MHOM/IN/60/Dd8, J774.A1, 72 h
Parameter: IC50. Scope: all listed entries.
property-measured: IC50

[[record]]
molecule = "CC(C)(C)n1nnnc1C(NCc1ccccc1)c1ccc(C2NC(=O)c3ccccc3N2)cc1 (stereo not given)"
assayed_system = "Leishmania donovani"
result = "> 40 µM"

[[record]]
molecule = "Nc1nc(-c2ccc(F)cc2)cc(-c2ccc(C3NC(=O)c4ccccc4N3)cc2)n1 (stereo not given)"
assayed_system = "Leishmania donovani"
result = "24.7 µM"

[[record]]
molecule = "COc1ccc(C(Nc2ccc(C3(C)NC(=O)c4ccccc4N3)cc2)c2nnnn2C2CCCCC2)cc1 (stereo not given)"
assayed_system = "Leishmania donovani"
result = "16.8 µM"

[[record]]
molecule = "CC1(c2ccc(Nc3nc(NCc4ccco4)nc(NCc4ccco4)n3)cc2)NC(=O)c2ccccc2N1 (stereo not given)"
assayed_system = "Leishmania donovani"
result = "> 20 µM"

[[record]]
molecule = "Nc1nc(-c2ccc(C3NC(=O)c4ccccc4N3)cc2)cc(-c2ccccc2Cl)n1 (stereo not given)"
assayed_system = "Leishmania donovani"
result = "15.3 µM"

